- experiment: Intrinsic clearance in Sprague-dawley rat hepatocytes
- Format: ADME, cell-based, Hepatocyte
- reported-conditions: read-out: CLH (converted)
observed-property: CLint scaled (mL/min/kg)

# compound-structure-string, observed-property, data-value
measured = [
    ("O=C1c2cc(-c3ccc(OC(F)(F)F)cc3)ccc2OCCN1Cc1ncccn1", "CLint scaled", 2.67),
]

----------
- tested-target: NaV1.5 (Homo sapiens, UniProt Q14524)
- Sequence (Q14524 whole entry): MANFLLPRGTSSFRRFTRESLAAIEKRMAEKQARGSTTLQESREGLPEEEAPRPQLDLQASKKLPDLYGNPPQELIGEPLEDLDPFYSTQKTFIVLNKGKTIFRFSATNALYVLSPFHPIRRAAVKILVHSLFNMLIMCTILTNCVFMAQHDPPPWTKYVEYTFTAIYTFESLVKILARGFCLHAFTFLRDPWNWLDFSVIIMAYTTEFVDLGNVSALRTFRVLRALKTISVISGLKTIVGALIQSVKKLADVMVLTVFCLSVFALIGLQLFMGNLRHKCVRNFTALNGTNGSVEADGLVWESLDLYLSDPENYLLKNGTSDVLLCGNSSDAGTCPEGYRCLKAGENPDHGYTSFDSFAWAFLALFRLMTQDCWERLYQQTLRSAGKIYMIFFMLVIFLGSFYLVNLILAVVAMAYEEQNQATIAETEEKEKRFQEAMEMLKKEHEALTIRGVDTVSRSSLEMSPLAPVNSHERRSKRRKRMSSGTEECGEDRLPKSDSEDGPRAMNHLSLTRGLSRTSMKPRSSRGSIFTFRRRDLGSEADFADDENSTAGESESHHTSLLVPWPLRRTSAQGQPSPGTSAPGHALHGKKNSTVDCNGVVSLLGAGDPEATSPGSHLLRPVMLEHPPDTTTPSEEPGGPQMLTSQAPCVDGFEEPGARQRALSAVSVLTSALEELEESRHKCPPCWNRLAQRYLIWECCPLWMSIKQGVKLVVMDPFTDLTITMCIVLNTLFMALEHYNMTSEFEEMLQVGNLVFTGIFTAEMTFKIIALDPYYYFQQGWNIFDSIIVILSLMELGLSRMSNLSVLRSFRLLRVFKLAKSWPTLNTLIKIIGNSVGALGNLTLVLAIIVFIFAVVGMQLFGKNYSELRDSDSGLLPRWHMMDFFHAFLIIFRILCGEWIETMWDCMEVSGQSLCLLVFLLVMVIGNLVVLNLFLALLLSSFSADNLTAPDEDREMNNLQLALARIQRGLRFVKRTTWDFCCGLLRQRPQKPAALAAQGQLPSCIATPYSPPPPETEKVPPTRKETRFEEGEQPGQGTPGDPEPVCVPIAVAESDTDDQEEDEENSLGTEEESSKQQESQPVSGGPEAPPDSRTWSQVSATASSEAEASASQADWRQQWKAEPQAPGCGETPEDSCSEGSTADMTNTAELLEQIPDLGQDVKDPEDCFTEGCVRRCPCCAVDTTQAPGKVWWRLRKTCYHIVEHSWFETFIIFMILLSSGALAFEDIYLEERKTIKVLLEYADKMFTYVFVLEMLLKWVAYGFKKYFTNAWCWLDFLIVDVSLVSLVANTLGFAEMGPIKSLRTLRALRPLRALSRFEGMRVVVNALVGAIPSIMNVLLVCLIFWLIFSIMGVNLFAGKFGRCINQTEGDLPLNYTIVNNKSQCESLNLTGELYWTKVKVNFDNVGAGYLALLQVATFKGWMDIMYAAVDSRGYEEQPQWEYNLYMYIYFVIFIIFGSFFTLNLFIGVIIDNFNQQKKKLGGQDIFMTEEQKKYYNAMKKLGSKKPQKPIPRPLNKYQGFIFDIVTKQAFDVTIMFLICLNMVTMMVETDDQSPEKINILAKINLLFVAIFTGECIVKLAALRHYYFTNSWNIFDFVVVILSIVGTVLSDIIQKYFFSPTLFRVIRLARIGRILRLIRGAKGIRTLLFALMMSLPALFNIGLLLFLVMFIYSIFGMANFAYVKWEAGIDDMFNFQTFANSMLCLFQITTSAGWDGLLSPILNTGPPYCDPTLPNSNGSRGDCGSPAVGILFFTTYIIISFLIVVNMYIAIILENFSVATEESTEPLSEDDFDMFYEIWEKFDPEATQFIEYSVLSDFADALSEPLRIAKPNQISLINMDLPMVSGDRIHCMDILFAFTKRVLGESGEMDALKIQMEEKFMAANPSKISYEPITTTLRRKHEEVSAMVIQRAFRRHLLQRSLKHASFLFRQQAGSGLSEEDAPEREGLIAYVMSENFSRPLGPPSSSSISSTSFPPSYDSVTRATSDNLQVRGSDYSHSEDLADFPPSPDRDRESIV
- experiment: Inhibition of human NaV1.5 expressed in HEK293 cells assessed as inhibition of peak sodium current measured at frequency 3 Hz at -120 mV resting membrane potential at 0.3 uM by electrophysiology assay relative to control
- reported-conditions: HEK293 cells expressing human NaV1.5
observed-property: inhibition at 0.3 µM (%)

# compound-structure-string, data-value
data = [
    ("O=C1c2cc(-c3ccc(OC(F)(F)F)cc3)ccc2OCCN1Cc1ncccc1F", 23),
]

----------
- experiment: Inhibition of late sodium current channel (unknown origin) at 25 Hz frequency by whole cell patch clamp technique
- reported-conditions: Homo sapiens
pIC50: −log10 of the molar value.

# compound-structure-string, pIC50
rows = [
    ("O=C1c2cc(-c3cccc(OC(F)(F)F)c3)ccc2OCCN1Cc1ncccn1", 5.69),
    ("O=C1c2cc(-c3ccc(Cl)cc3)ccc2OCCN1Cc1ncccn1", 5.79),
    ("O=C1c2cc(-c3ccc(Cl)c(F)c3)ccc2OCCN1Cc1ncccn1", 5.79),
    ("O=C1c2cc(-c3cccc(C(F)(F)F)c3)ccc2OCCN1Cc1ncccn1", 5.52),
    ("Nc1ccnc(CN2CCOc3ccc(-c4ccc(OC(F)(F)F)cc4)cc3C2=O)n1", 5.61),
]

----------
- tested-target: Sodium channel protein type 3 subunit alpha (Homo sapiens, UniProt Q9NY46)
- Sequence (Q9NY46 whole entry): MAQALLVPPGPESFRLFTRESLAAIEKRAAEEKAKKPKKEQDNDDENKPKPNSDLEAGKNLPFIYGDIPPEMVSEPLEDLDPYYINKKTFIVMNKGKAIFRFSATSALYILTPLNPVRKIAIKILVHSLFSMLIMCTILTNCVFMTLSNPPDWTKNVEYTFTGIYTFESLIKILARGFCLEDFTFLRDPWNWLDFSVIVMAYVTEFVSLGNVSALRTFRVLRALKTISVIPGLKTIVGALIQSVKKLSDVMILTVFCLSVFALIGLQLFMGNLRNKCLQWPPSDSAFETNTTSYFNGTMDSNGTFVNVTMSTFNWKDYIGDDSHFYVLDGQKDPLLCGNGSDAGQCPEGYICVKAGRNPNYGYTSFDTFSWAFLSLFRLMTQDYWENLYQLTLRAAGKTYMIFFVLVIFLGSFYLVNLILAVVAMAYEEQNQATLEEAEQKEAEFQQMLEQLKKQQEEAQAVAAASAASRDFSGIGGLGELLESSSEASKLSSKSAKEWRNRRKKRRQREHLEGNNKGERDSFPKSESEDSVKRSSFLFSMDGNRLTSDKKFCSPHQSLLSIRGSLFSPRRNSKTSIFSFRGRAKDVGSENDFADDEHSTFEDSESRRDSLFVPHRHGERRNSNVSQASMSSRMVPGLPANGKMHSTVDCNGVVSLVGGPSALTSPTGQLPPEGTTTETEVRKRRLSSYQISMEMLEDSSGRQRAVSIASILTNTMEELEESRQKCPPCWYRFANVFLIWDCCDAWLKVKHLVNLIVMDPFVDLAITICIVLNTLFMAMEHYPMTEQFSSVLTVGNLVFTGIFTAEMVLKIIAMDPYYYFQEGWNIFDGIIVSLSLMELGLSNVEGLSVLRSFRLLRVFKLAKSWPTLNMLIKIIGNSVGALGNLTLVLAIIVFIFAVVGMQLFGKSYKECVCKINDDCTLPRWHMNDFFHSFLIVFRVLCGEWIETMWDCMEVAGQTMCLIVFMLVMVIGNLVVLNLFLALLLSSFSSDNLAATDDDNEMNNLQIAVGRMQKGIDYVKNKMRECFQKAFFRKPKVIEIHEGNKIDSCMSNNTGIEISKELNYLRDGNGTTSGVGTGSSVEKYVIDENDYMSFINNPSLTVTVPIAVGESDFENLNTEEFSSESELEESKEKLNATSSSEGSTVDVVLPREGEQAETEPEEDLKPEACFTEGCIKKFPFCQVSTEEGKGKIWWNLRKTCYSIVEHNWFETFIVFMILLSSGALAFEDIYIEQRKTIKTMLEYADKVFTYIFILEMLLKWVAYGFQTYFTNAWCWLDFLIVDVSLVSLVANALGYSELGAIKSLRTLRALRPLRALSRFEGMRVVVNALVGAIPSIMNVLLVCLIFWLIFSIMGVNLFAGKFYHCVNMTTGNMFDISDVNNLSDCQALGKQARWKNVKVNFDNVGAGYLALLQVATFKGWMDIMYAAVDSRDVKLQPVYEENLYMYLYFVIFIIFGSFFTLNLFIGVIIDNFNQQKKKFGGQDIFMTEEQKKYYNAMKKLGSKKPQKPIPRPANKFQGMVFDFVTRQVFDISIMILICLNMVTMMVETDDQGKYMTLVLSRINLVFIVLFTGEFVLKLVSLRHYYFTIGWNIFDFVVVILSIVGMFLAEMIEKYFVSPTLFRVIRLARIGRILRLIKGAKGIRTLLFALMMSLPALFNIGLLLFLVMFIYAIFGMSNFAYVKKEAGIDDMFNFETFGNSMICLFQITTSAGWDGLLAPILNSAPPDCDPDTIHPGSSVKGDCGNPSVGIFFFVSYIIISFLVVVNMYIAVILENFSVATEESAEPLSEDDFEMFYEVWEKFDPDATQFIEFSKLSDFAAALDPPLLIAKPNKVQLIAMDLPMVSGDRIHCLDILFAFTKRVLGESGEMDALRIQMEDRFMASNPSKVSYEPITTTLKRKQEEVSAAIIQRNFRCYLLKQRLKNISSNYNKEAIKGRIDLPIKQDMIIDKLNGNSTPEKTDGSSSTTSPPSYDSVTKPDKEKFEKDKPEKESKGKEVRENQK
- experiment: Inhibition of NaV1.3 (unknown origin) at 10 Hz frequency by whole cell manual patch clamp technique
observed-property: IC50 (µM)

# compound-structure-string, observed-property, data-value
measured = [
    ("O=C1c2cc(-c3ccc(OC(F)(F)F)cc3)ccc2OCCN1Cc1ncccn1", "IC50", 16),
]

----------
- experiment: Half-life in iv dosed Sprague-Dawley rat
- Type: ADME, organism-based
- reported-conditions: in vivo
observed-property: half-life (h)

# compound-structure-string, observed-property, data-value
records = [
    ("O=C1c2cc(-c3ccc(OC(F)(F)F)cc3)ccc2OCCN1Cc1ncccn1", "half-life", 13),
]

----------
- tested-target: NaV1.1 (Homo sapiens, UniProt P35498)
- experiment: Inhibition of NaV1.1 (unknown origin) expressed in cells assessed as inhibition of peak INa current at 10 uM at 25 Hz frequency by whole-cell patch clamp method relative to control
- Type: cell-based
- reported-conditions: cells expressing NaV1.1
observed-property: inhibition at 10 µM (%)

# compound, data-value
measured = [
    ("O=C1c2cc(-c3ccc(OC(F)(F)F)cc3)ccc2OCCN1Cc1ncccn1 [ELECLAZINE]", 53),
    ("O=C1c2cc(-c3ccc(OC(F)(F)F)cc3F)ccc2OCCN1Cc1ncccn1", 35),
    ("O=C1c2cc(-c3ccc(OC(F)(F)F)cc3)ccc2OCCN1Cc1ncccc1F", 82),
    ("O=C1c2cc(-c3ccc(OC(F)(F)F)cc3)ccc2OCCN1Cc1ccccn1", 67),
    ("Nc1ccnc(CN2CCOc3ccc(-c4ccc(OC(F)(F)F)cc4)cc3C2=O)n1", 52),
    ("O=C1c2cc(-c3ccc(OC(F)(F)F)c(Cl)c3)ccc2OCCN1Cc1ncccn1", 33),
    ("O=C1c2cc(-c3ccc(C(F)(F)F)cc3)ccc2OCCN1Cc1ncccn1", 60),
    ("O=C1c2cc(-c3ccc(C(F)(F)F)cc3)ccc2CCN1Cc1ncccn1", 15),
    ("O=C1c2cc(-c3ccc(Cl)cc3)ccc2OCCN1Cc1ncccn1", 31),
    ("O=C1c2cc(-c3ccc(OC(F)(F)F)cc3)ccc2OCCN1CCc1ncccn1", 67),
    ("O=C1c2cc(-c3ccc(Cl)c(F)c3)ccc2OCCN1Cc1ncccn1", 23),
]

----------
- experiment: Inhibition of late sodium current channel (unknown origin) at 25 Hz frequency by whole cell patch clamp technique
- reported-conditions: Homo sapiens
pIC50: −log10 of the molar value.
Catalogue of compounds with associated pIC50

# compound-structure-string, pIC50
measured = [
    ("O=C1c2cc(-c3ccc(C(F)(F)F)cc3)ccc2CCN1Cc1ncccn1", 5.68),
    ("O=C1c2cc(-c3ccc(OC(F)(F)F)cc3)ccc2OCCN1CCc1ncccn1", 6.00),
    ("COc1ccnc(CN2CCOc3ccc(-c4ccc(OC(F)(F)F)cc4)cc3C2=O)n1", 6.01),
    ("O=C1c2cc(-c3ccc(OC(F)(F)F)c(Cl)c3)ccc2OCCN1Cc1ncccn1", 6.11),
]
